Reported Kd values are given for each entry in this list.
tested system: HIS-tagged LC3Bwt (aa 1-119) (human, UniProt Q9GZQ8 1-119)
assay protocol: BLI; Octet RED96; N-terminally biotinylated peptides on streptavidin biosensors, quenched with biocytin; HIS-tagged LC3B/GATE-16 proteins as analyte, 6.8 nM to 5 μM (LC3Bwt on NDP52 peptide: 312.5 nM to 20 μM); DPBS with 150 mM NaCl, 1% BSA, 0.02% Tween 20; 1:1 global fit
test conditions: both partners purified
Non-standard residues stand in square brackets, D forms with d. No end group written: not given here. *: point of attachment. Biotin = O=C1N[C@H]2[C@H](CS[C@H]2CCCCC(=O)*)N1; pS = N[C@@H](COP(=O)(O)O)C(=O)O
Your reply should be a number followed by the unit it is expressed in.

{"columns": ["binder", "Kd"],
 "data": [
  ["Biotin-GSSED[pS]FVEIRMAEG (also called pS177 OPTN (172–186); pS177 OPTN peptide; source: synthetic peptide (GenScript, over 75% purity)) [pS177 OPTN LIR peptide (172-186), biotinylated]", "0.8 µM"]
]}

Turning to the following binder.
stdin: For the binder Biotin-GSSEDSFVEIRMAEG (human optineurin (OPTN) LIR peptide, residues 172-186; also called OPTN (172–186); OPTN peptide; source: synthetic peptide (GenScript, over 75% purity)) [OPTN LIR peptide (172-186), biotinylated] , what Kd is on record?
stdout: 8.4 µM
